- test-name: osmotic lysis modulators in infected erythrocytes, primary screen, PSAC antagonist project, cell-based, P. falciparum Indochina, OD700, 3 h (AID 1156)
- particulars: higher = more signal, called active from +8 up or from −8 down
The source made the active and inactive calls.
Collected z-score values appear next to each entry.

| smiles-repr | z-score |
| --- | --- |
| COc1c(C)cc(-c2cc3c(c(-c4ccccc4)n2)[Si](C(C)C)(C(C)C)OC3)cc1C | 0.392 (inactive) |
| C=C(C(=O)CC[C@H](OC(C)=O)c1cccc(OCCO)c1)C(C)C | 1.7 (inactive) |
| CCOC(=O)C1=CC[C@@H](c2cc(Cl)ccc2Cl)N(S(=O)(=O)c2ccc(C)cc2)[C@H]1c1ccc(OC)cc1 | 0.926 (inactive) |

----------
- measurement-target: E3 ubiquitin-protein ligase XIAP (Homo sapiens) (UniProt P98170)
- Sequence (P98170 whole entry, looked up): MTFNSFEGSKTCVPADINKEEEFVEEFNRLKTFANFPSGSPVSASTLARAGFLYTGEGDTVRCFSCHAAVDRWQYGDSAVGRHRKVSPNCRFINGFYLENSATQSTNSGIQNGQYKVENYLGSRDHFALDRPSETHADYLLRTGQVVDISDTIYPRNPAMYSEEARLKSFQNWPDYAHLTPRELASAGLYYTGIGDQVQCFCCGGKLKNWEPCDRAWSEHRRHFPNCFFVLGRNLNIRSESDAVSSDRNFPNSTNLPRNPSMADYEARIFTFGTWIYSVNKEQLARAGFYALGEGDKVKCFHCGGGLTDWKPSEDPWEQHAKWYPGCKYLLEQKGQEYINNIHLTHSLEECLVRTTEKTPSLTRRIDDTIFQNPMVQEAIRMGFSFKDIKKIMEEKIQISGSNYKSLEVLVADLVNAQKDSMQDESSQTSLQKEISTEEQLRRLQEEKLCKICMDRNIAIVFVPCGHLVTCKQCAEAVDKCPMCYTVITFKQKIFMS
- test-name: XIAP binders, primary screen, biophysical, small-molecule microarray, fluorescence 635 nm (AID 1181);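 further: score merges 667 nm emission and signal to noise over triplicate slides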
- particulars: small-molecule microarray binding, higher = more signal
Outcome: met for composite z-score of at least 0.008; not met for anything lower.

| compound | measurement-target | class-name |
| --- | --- | --- |
| O=C1c2ccccc2[C@@]2(Cc3ccccc3N(C3CC3)C2=O)[C@H](c2ccc(CO)cc2)N1C1CCCCC1 | E3 ubiquitin-protein ligase XIAP (Homo sapiens) (UniProt P98170) | met |
| C=CCOC(=O)[C@@H]1[C@H]2C(=O)O[C@H](c3ccccc3)[C@H](c3ccccc3)N2[C@H](c2ccc(OCCOC(=O)[C@H]3C[C@H]4C(=O)N[C@@H](CCCCNC(C)=O)C(=O)N4[C@H]3c3cccc(OCCO)c3)cc2)[C@@]12C(=O)Nc1ccc(I)cc12 | E3 ubiquitin-protein ligase XIAP (Homo sapiens) (UniProt P98170) | not met |
| CCOC(=O)C1=CC[C@@H](c2ccc([N+](=O)[O-])cc2)N(S(=O)(=O)c2ccc(C)cc2)[C@H]1c1ccccc1 | E3 ubiquitin-protein ligase XIAP (Homo sapiens) (UniProt P98170) | not met |
| CCOC(=O)C1=CC[C@@H](c2cc(Cl)ccc2Cl)N(S(=O)(=O)c2ccc(C)cc2)[C@H]1c1ccc(OC)cc1 | E3 ubiquitin-protein ligase XIAP (Homo sapiens) (UniProt P98170) | met |
| CCOC(=O)C[C@H]1[C@H](OC(=O)Cc2ccc3c(c2)OCO3)[C@@H](NC(=O)Cc2ccc(OC)cc2)c2cc(OCCCO)ccc2N1C(=O)c1ccccc1 | E3 ubiquitin-protein ligase XIAP (Homo sapiens) (UniProt P98170) | not met |
| C#CCNC(=O)[C@H](Cc1ccccc1)NC(=O)[C@@H](N=[N+]=[N-])C(C)C | E3 ubiquitin-protein ligase XIAP (Homo sapiens) (UniProt P98170) | met |
| COC(=O)C[C@H]1O[C@]2(C(=O)N(C)c3ccccc32)[C@@H](C)[C@@H]1[Si](C)(C)c1ccc(C)cc1 | E3 ubiquitin-protein ligase XIAP (Homo sapiens) (UniProt P98170) | not met |
| COC(=O)[C@@]1(Cc2ccccc2)[C@H]2c3cc(C(=O)N4CCCC4)n(C[C@H](O)CO)c3C[C@H]2CN1C(=O)c1ccccc1 | E3 ubiquitin-protein ligase XIAP (Homo sapiens) (UniProt P98170) | not met |
| CCOC(=O)C[C@H]1[C@H](OC(=O)c2ccc(-c3ccccc3)cc2)[C@@H](NC(=O)c2ccc3ccccc3n2)c2cc(OCCCO)ccc2N1C(=O)c1ccccc1 | E3 ubiquitin-protein ligase XIAP (Homo sapiens) (UniProt P98170) | not met |
| CC(CO)N1C(=O)[C@@H]2C3C(=O)OCCC/C=C\[C@H]3OC23C=CCN(Cn2nnc4ccccc42)C(=O)[C@@H]13 (some centres undefined) | E3 ubiquitin-protein ligase XIAP (Homo sapiens) (UniProt P98170) | met |
| COCCCNC(=O)[C@@]1(Sc2ccc(C)cc2)CC(=O)N(C2Cc3ccccc3C2)[C@@H]1c1ccc(CO)cc1I | E3 ubiquitin-protein ligase XIAP (Homo sapiens) (UniProt P98170) | met |
| COC(=O)[C@@]1(Cc2ccc(OC)cc2)[C@H]2c3cc(C(=O)N(C)C)n(CCc4c[nH]c5ccc(O)cc45)c3C[C@H]2CN1C(=O)c1ccccc1 | E3 ubiquitin-protein ligase XIAP (Homo sapiens) (UniProt P98170) | met |
| C=C(COC)/C(=C/C[C@@H](OC(=O)c1ccncc1)c1cccc(OCCO)c1)c1cnc2ccccc2c1 | E3 ubiquitin-protein ligase XIAP (Homo sapiens) (UniProt P98170) | met |

Hello, the source for this data is PubChem BioAssay, in case you need it.
